Species on record: Rattus norvegicus
Assay: Open TG-GATES - Regimen: Single
Assay type: toxicity, organism-based, Sprague-Dawley
Parameters: regimen Single, gender Male, age 6 weeks
Details: in vivo, po, 300 mg/kg, 6 h, tissue Plasma, route gavage, dose level Middle
If the reported TC equals or exceeds 80 mg/dL, assign Satisfied. If not, assign Not satisfied.

Below are worked cases with known answers.
>  <MOLECULE>
C[C@H](CS)C(=O)N1CCC[C@H]1C(=O)O [CAPTOPRIL]

>  <GROUP>
Not satisfied

$$$$
>  <MOLECULE>
CCc1cc(C(N)=S)ccn1 [ETHIONAMIDE]

>  <GROUP>
Not satisfied

$$$$

Given O=C(O)c1cc(/N=N/c2ccc(S(=O)(=O)Nc3ccccn3)cc2)ccc1O [SULFASALAZINE] , state whether its TC is at least 80 mg/dL.
Satisfied

Given Clc1ccccc1CN1CCc2sccc2C1 [TICLOPIDINE] , state whether its TC is at least 80 mg/dL.
Not satisfied

----------
Species on record: Rattus norvegicus
Test: Open TG-GATES - Regimen: Daily Repeat
Format: toxicity, organism-based, Sprague-Dawley
Parameters: regimen Daily Repeat, gender Male, age 6 weeks
Conditions: in vivo, po, 0 mg/kg, […], tissue Plasma, route gavage, dose level Control, time 14 day
MEASURED PROPERTY: ALT (IU/L)
Express it in IU/L; write the number only.

Consider the worked cases shown below.
>  <COMPOUND>
Cn1c(=O)c2[nH]cnc2n(C)c1=O.O

>  <UNIT INFO>
IU/L

>  <REPORTED MEASUREMENT>
38.2

$$$$
>  <COMPOUND>
NC(=O)N1c2ccccc2C=Cc2ccccc21 [CARBAMAZEPINE]

>  <UNIT INFO>
IU/L

>  <REPORTED MEASUREMENT>
36

$$$$
>  <COMPOUND>
CCCC(CCC)C(=O)O

>  <UNIT INFO>
IU/L

>  <REPORTED MEASUREMENT>
34.8

$$$$

Now, please, on to the next compound.
The recorded ALT for CCc1cc(C(N)=S)ccn1 [ETHIONAMIDE] is 32

----------
Listed here: items and their measured LIVER.
Organism: Rattus norvegicus
Experiment: Open TG-GATES - Regimen: Single
Assay type: toxicity, organism-based, Sprague-Dawley
Parameters: regimen Single, gender Male, age 6 weeks
Conditions: in vivo, po, 100 mg/kg, 9 h, tissue Liver, route gavage, dose level Low

Consider the worked cases shown below.
>  <COMPOUND>
O=C(O)c1cn(C2CC2)c2cc(N3CCNCC3)c(F)cc2c1=O [CIPROFLOXACIN]

>  <LIVER>
7.3 g

$$$$
>  <COMPOUND>
O=C(O)c1cc(/N=N/c2ccc(S(=O)(=O)Nc3ccccn3)cc2)ccc1O [SULFASALAZINE]

>  <LIVER>
8.7 g

$$$$
>  <COMPOUND>
CCc1cc(C(N)=S)ccn1 [ETHIONAMIDE]

>  <LIVER>
9.8 g

$$$$
>  <COMPOUND>
Clc1ccccc1CN1CCc2sccc2C1 [TICLOPIDINE]

>  <LIVER>
8.3 g

$$$$

Now, please, on to the next compound.
The recorded LIVER for C[C@H](CS)C(=O)N1CCC[C@H]1C(=O)O [CAPTOPRIL] is 9 g

These measurements were taken from ChEMBL document CHEMBL3885861.
